The measured values listed here are drawn from paper PMC4336329.

Consider the following compounds and their measured hERG current change (%, negative = inhibition) at 10uM readings.
# experimentalTarget: human ether-à-go-go-related gene (hERG) potassium channel (human, UniProt Q12809)
# Sequence (Q12809 whole entry, looked up): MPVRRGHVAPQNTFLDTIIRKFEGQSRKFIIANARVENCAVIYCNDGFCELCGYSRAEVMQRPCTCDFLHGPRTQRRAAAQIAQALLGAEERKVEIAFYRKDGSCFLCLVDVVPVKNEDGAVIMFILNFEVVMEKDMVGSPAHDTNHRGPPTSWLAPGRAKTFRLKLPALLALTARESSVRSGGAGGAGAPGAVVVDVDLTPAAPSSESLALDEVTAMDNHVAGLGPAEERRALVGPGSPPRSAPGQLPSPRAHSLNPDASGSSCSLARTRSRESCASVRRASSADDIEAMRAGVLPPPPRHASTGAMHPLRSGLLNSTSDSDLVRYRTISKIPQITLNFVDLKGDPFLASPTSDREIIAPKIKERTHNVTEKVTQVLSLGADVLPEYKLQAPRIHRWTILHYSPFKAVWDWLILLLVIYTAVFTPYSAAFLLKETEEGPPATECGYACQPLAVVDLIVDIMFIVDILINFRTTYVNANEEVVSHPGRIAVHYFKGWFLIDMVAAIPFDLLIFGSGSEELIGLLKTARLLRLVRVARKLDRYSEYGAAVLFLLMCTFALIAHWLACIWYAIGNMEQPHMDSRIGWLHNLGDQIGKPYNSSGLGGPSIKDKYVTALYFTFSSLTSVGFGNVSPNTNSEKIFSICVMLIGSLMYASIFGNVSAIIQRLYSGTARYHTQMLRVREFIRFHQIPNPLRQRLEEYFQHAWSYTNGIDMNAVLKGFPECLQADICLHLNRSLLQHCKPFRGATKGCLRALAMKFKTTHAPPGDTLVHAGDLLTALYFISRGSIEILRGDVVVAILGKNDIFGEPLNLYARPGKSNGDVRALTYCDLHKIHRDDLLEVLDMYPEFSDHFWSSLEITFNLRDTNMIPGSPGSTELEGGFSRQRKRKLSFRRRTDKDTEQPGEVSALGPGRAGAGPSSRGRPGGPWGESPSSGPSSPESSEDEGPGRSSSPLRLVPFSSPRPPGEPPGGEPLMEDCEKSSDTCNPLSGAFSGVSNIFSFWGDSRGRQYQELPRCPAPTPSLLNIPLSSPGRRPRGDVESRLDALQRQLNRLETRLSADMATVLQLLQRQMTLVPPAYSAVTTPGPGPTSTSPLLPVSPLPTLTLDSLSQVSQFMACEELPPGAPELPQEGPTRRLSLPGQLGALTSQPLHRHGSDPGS
# testDescription: primary screen, population patch clamp on CHO cells stably expressing hERG; higher = less effect of the substance
Hit rate of the full screen: of about 310,000 compounds, about 14,000 (4.5%) showed an effect of 50% or more. Effects have a minus sign here. The entries come from a sample that favours strong results as a whole.
Dear colleague, please send the value followed by its unit.

Past entries and their recorded results:
- compound: "CCOc1ccccc1C1CC(=O)Nc2cc(OC)c(OC)c(OC)c21 (centres unmarked)"
  measurement: "19.6%"
- compound: "C=CCn1c(SC)nc2sc3c(c2c1=O)CCc1ccccc1-3"
  measurement: "10.3%"
- compound: "CCN(C(=O)COC(=O)Cc1c[nH]c2ccccc12)c1c(N)n(Cc2ccccc2)c(=O)[nH]c1=O"
  measurement: "16.3%"
- compound: "COc1ccc(C(=O)NCC(=O)OCC(=O)NC(=O)c2ccc(C(C)(C)C)cc2)cc1OC"
  measurement: "-23.7%"
- compound: "C#CCOCCOCCOCCNc1nc(N2CCOCC2)nc(N2CCN(C(=O)[C@H](Cc3cc4ccccc4[nH]3)n3cc([C@@H](N)C(C)CC)nn3)CC2)n1.Cl (some centres unmarked)"
  measurement: "9.81%"
- compound: "CC(C)c1onc(C(=O)N2CCN(C(c3ccccc3)c3ccccc3)CC2)c1[N+](=O)[O-]"
  measurement: "13.6%"

Please fill in: hERG current change (%, negative = inhibition) at 10uM reported for `Cc1ccc2c(CC(=O)OCc3nc(N)nc(Nc4ccccc4C)n3)coc2c1` = 5.79%

The reported hERG current change (%, negative = inhibition) at 10uM of the compound `Cc1ccccc1OCCn1cnc2cc([N+](=O)[O-])ccc2c1=O` was -7.38%

---

Reported hERG current change (%, negative = inhibition) at 10uM by item:
# experimentalTarget: human ether-à-go-go-related gene (hERG) potassium channel (human);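 also: peak tail current of the secondary pulse compared with the same well before compound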
# testDescription: primary screen, population patch clamp on CHO cells stably expressing hERG; higher = less effect of the substance
Hit rate of the full screen: of about 310,000 compounds, about 14,000 (4.5%) showed an effect of 50% or more. The effect is printed as a negative number. What follows is part of a selection rich in strong results, with near analogues and random picks from the rest.
Write the answer as a number in %, unit excluded.

- molecule: "CCCN(CCC)CCNC(=O)c1cc2c(-c3ccccc3F)nn(C)c2s1"
  experimentalTarget: "human ether-à-go-go-related gene (hERG) potassium channel (human)"
  measurement: -47.2
- molecule: "COc1ccc(N(CC(=O)NCc2ccccc2OC)S(=O)(=O)c2ccccc2[N+](=O)[O-])c(OC)c1"
  experimentalTarget: "human ether-à-go-go-related gene (hERG) potassium channel (human)"
  measurement: 3.17
- molecule: "CC1C(c2ccccc2)=NNc2nc3c(c(=O)n(C)c(=O)n3C)n21 (centres unmarked)"
  experimentalTarget: "human ether-à-go-go-related gene (hERG) potassium channel (human)"
  measurement: 3.99
- molecule: "CCCCNC(=S)Nc1ccc2nc(N3CCN(CC)CC3)cc(C)c2c1"
  experimentalTarget: "human ether-à-go-go-related gene (hERG) potassium channel (human)"
  measurement: -44.6
- molecule: "CCN(CC)CCNC(=S)Nc1ccc2nc(N3CCN(CC)CC3)cc(C)c2c1"
  experimentalTarget: "human ether-à-go-go-related gene (hERG) potassium channel (human)"
  measurement: 11.2
- molecule: "COc1ccccc1CNC(=S)Nc1ccc2nc(N3CCN(C)CC3)cc(C)c2c1"
  experimentalTarget: "human ether-à-go-go-related gene (hERG) potassium channel (human)"
  measurement: -1.77

Measured on human ether-à-go-go-related gene (hERG) potassium channel (human), `O=C(OCC(=O)N1CCC(c2ccccc2)=N1)c1ccc([N+](=O)[O-])s1` has a documented hERG current change (%, negative = inhibition) at 10uM of -34.7

Item `O=c1cc(-c2cc3ccccc3o2)c2cc(O)ccc2o1` was tested on human ether-à-go-go-related gene (hERG) potassium channel (human); the reported hERG current change (%, negative = inhibition) at 10uM is 13.3

# lookup: `Cc1cc(=O)oc2cc(OCC(=O)NCCCN3CCCC3=O)ccc12` on human ether-à-go-go-related gene (hERG) potassium channel (human), hERG current change (%, negative = inhibition) at 10uM = 29.5

hERG current change (%, negative = inhibition) at 10uM value, target or system human ether-à-go-go-related gene (hERG) potassium channel (human), for CCC(=O)NC(NC(=S)Nc1ccccc1Br)C(Cl)(Cl)Cl (centres unmarked) : 18.2

`CC(=O)C[C@H]1c2cc(C(F)(F)F)ccc2S(=O)(=O)N1C1CCCC1` on human ether-à-go-go-related gene (hERG) potassium channel (human) gives hERG current change (%, negative = inhibition) at 10uM = -12.1

// molecule Cc1ccc(NC(=O)c2ccccc2N2C(=O)C3C4C=CC(C5CC45)C3C2=O)cc1C (centres unmarked) , assay human ether-à-go-go-related gene (hERG) potassium channel (human), hERG current change (%, negative = inhibition) at 10uM value: 2.91

---

# experimentalTarget: human ether-à-go-go-related gene (hERG) potassium channel (human, UniProt Q12809);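 also: peak tail current of the secondary pulse compared with the same well before compound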
# testDescription: primary screen, population patch clamp on CHO cells stably expressing hERG; higher = less effect of the substance
The whole screen tested about 310,000 compounds, of which about 14,000 (4.5%) showed an effect of 50% or more. Effects have a minus sign here. The entries come from a sample that favours strong results as a whole.
Each entry below carries its recorded hERG current change (%, negative = inhibition) at 10uM.
I'd appreciate it if you wrote the number followed by its unit.

As a guide, the following entries are already answered.
- molecule: "COC(=O)c1cn(C(=O)c2ccccc2F)nc1N"
  experimentalTarget: "human ether-à-go-go-related gene (hERG) potassium channel (human, UniProt Q12809)"
  measurement: "-5.96%"
- molecule: "Cl.OC(COCc1ccc2c(c1)OCO2)CN1CCN(Cc2ccccc2)CC1 (centres unmarked)"
  experimentalTarget: "human ether-à-go-go-related gene (hERG) potassium channel (human, UniProt Q12809)"
  measurement: "-33.1%"
- molecule: "Cl.O=C1c2cccc3cccc(c23)C(=O)N1CC1CCN(CC(O)COCc2ccc3c(c2)OCO3)CC1 (centres unmarked)"
  experimentalTarget: "human ether-à-go-go-related gene (hERG) potassium channel (human, UniProt Q12809)"
  measurement: "-75.3%"

// recorded hERG current change (%, negative = inhibition) at 10uM for COc1ccc(C(CNC(=O)C(CC(C)C)NS(=O)(=O)c2ccc(C)cc2)N2CCOCC2)cc1 (centres unmarked) : -3.25%

In plain terms, `C=CCNC(=S)N1CCOCC1` has a documented hERG current change (%, negative = inhibition) at 10uM of -1.69%

---

# experimentalTarget: human ether-à-go-go-related gene (hERG) potassium channel (human);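 also: peak tail current of the secondary pulse compared with the same well before compound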
# testDescription: primary screen, population patch clamp on CHO cells stably expressing hERG; higher = less effect of the substance
Hit rate of the full screen: of about 310,000 compounds, about 14,000 (4.5%) showed an effect of 50% or more. Effects have a minus sign here. The full list was thinned out, with strong results kept by preference.
measuredProperty: hERG current change (%, negative = inhibition) at 10uM (%)
Quick reminder: number only, in %, skip the unit.

Examples from the recorded data:
- querySmiles: "O=C(NNC(=S)NC(=O)c1ccccc1)c1cccc([N+](=O)[O-])c1"
  experimentalTarget: "human ether-à-go-go-related gene (hERG) potassium channel (human)"
  measurement: 22.8
- querySmiles: "CC(=O)Nc1ccc(C(=O)OCC(=O)NCc2ccccc2)cc1"
  experimentalTarget: "human ether-à-go-go-related gene (hERG) potassium channel (human)"
  measurement: 11.9
- querySmiles: "CCOC(=O)c1c(CSc2ccccc2)n(C)c2ccc(O)c(CN3CCN(C)CC3)c12"
  experimentalTarget: "human ether-à-go-go-related gene (hERG) potassium channel (human)"
  measurement: -22.6
- querySmiles: "Cc1cc(OCC(=O)NC(C)(C)C)ccc1Cl"
  experimentalTarget: "human ether-à-go-go-related gene (hERG) potassium channel (human)"
  measurement: 7.04

Now consider a different compound.
Entry `CCOC(=O)c1c(-c2ccccc2)oc2ccc(O)c(CN3CCCC3)c12` ; hERG current change (%, negative = inhibition) at 10uM = -64.3

---

Quick list: hERG current change (%, negative = inhibition) at 10uM per entry.
# experimentalTarget: human ether-à-go-go-related gene (hERG) potassium channel (human, UniProt Q12809);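 also: peak tail current of the secondary pulse compared with the same well before compound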
# testDescription: primary screen, population patch clamp on CHO cells stably expressing hERG; higher = less effect of the substance
Screen size: about 310,000 compounds; about 14,000 (4.5%) showed an effect of 50% or more. The effect is printed as a negative number. The sample as a whole holds a higher share of strong results than the screen did.
Express the reported value numerically, then name its unit.

Past entries and their recorded results:
- compound: "Cc1ccc(NCc2nnc(SCCN3CCCCC3)n2CC2CCCO2)c(C)c1 (stereo not shown)"
  measurement: "-58.5%"
- compound: "Cc1ccc(NCc2nnc(SCC(N)=O)n2CC2CCCO2)c(C)c1 (stereo not shown)"
  measurement: "8.71%"
- compound: "Cc1ccc(NCc2nnc(SCC(=O)Nc3ccccc3)n2CC2CCCO2)c(C)c1 (stereo not shown)"
  measurement: "-0.0882%"
- compound: "Cl.OC(CN1C2=NCCCN2c2ccccc21)c1ccc(Cl)cc1 (stereo not shown)"
  measurement: "-75.9%"
- compound: "O=C(O)C1=CC2c3ccccc3C1c1ccccc12"
  measurement: "17.4%"

The compound Cc1ccc(NCc2nnc(SCC(=O)N3CCCCC3)n2CC2CCCO2)c(C)c1 (stereo not shown) , tested on human ether-à-go-go-related gene (hERG) potassium channel (human, UniProt Q12809), showed hERG current change (%, negative = inhibition) at 10uM of -5.62%

Measured hERG current change (%, negative = inhibition) at 10uM for this entry Cc1ccc(NCc2nnc(SCC(=O)NCc3ccco3)n2CC2CCCO2)cc1Cl (stereo not shown) on human ether-à-go-go-related gene (hERG) potassium channel (human, UniProt Q12809): -7.7%

Reading of hERG current change (%, negative = inhibition) at 10uM for `Cc1cc(-c2ccccc2)nc(SCc2ccc(C(=O)O)o2)n1` with human ether-à-go-go-related gene (hERG) potassium channel (human, UniProt Q12809): -3.89%

hERG current change (%, negative = inhibition) at 10uM of `CN(Cc1nc2ccccc2n1C)S(=O)(=O)c1ccc(Cl)cc1` , assay on human ether-à-go-go-related gene (hERG) potassium channel (human, UniProt Q12809), is 3.21%

Bench note, human ether-à-go-go-related gene (hERG) potassium channel (human, UniProt Q12809): COc1cccc(CC2(CO)CCCN(Cc3ccc(OC)c(C)c3OC)C2)c1 (stereo not shown) , hERG current change (%, negative = inhibition) at 10uM reads -77.6%
